Reference source for all entries: PubChem BioAssay (NCATS)

test: Primary qHTS to identify inhibitors of SARS-CoV-2 cell entry (AID 1645846); details: SARS-CoV-2 pseudovirus cell entry assay, luminescence; further: nearly all actives have a fitted effect of over 45% in size; further: potency means the concentration at half of the fitted maximal effect
Results filed as inconclusive are left out. The source made the active and inactive calls. The call rests on the fitted dose curve.
experimental-endpoint: Potency

CN[C@H]1C[C@@H](N)[C@H](O)[C@@H](O[C@@H]2O[C@H](CO)[C@H](O)[C@@H]3OC4(O[C@H]23)O[C@H]([C@@H](N)CO)[C@H](O)[C@H](O)[C@H]4O)[C@@H]1O (some centres not stated) :: 17.8 µM (active)
OCCn1cc(-c2ccc3c(c2)CC/C3=N\O)c(-c2ccncc2)n1 :: inactive
O=C(O)c1ccc2nc(-c3cc(Cl)cc(Cl)c3)oc2c1 :: inactive
O=C(O)CNC(=O)c1ncc(-c2cccc(Cl)c2)cc1O :: inactive
C=CCNC1=C2C[C@@H](C)C[C@H](OC)[C@H](O)[C@@H](C)/C=C(\C)[C@H](OC(N)=O)[C@@H](OC)/C=C\C=C(/C)C(=O)NC(=CC1=O)C2=O :: 14.1 µM (active)

State, in one line, measured Potency of CN1CCN(C(=O)c2ccc(-c3ccc4c(C=O)c(O)ccc4c3)s2)CC1
inactive

State, in one line, measured Potency of Cc1c(Cl)c(C)[n+]([O-])c(Cl)c1-c1noc(-c2cc(O)c(O)c([N+](=O)[O-])c2)n1
14.1 µM (active)

State, in one line, measured Potency of Cc1ccc(Nc2cc(N[C@@H]3CCCC[C@@H]3N)nnc2C(N)=O)nc1C
inactive

State, in one line, measured Potency of C=CC(=O)N1C[C@H](Nc2ncnc3[nH]ccc23)CC[C@@H]1C
inactive

State, in one line, measured Potency of Cc1ccc(S(=O)(=O)Nc2cc(C(F)(F)F)ccc2C(=O)Nc2nc(-c3ccccc3)cs2)cc1
8.91 µM (active)
